Value source: ChEMBL document CHEMBL1141709

Let's look at some molecules and their measured Efficacy.
# test_system: Thrombopoietin receptor (Homo sapiens) (UniProt P40238)
# Sequence (P40238 whole entry): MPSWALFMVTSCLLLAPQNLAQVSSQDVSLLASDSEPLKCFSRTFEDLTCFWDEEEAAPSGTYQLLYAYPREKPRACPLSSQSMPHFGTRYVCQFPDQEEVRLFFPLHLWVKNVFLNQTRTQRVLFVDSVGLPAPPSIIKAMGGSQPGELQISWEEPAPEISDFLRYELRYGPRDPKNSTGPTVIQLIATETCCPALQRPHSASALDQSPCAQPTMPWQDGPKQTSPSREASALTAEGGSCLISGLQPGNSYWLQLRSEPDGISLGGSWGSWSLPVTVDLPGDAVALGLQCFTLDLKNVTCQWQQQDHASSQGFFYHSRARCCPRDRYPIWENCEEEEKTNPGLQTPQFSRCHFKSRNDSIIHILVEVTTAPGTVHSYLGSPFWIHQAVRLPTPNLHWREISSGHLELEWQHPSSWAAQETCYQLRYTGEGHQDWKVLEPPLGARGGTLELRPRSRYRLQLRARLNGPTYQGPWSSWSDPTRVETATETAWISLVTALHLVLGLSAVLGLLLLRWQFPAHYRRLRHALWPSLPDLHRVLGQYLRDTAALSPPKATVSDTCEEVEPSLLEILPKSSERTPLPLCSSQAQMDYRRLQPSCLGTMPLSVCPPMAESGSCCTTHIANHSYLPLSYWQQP
# experiment: Agonist activity at human thrombopoietin receptor expressed in mouse Ba/F3 cells by kinase activation based reporter gene assay relative to 30 ng/mL thrombopoietin
# Assay type: functional, cell-based
# measurement_context: BaF3
measured_parameter: Efficacy (%)

smiles_entry | measured_parameter | test_value
CCCCc1ccc(-c2ccc3c4c([nH]c3c2F)-c2ccc(C(=O)O)cc2C4(C)C)cc1 | Efficacy | 118
Cc1cc(-c2ccc3c4c([nH]c3c2F)-c2ccc(C(=O)O)cc2C4)ccc1F | Efficacy | 144
CCCCc1ccc(-c2ccc3c4c([nH]c3c2F)-c2ccc(NC(=O)C(=O)O)cc2C4)cc1 | Efficacy | 110
CCCCc1ccc(-c2ccc3c(C(C)C)c(-c4ccc(C(=O)O)c(O)c4)[nH]c3c2F)cc1 | Efficacy | 70
CCCCc1ccc(-c2ccc3c(C)c(-c4ccc(C(=O)O)c(O)c4)[nH]c3c2F)cc1 | Efficacy | 119
CCCCc1ccc(-c2ccc3c(CC)c(-c4ccc(C(=O)O)c(O)c4)[nH]c3c2F)cc1 | Efficacy | 97
CCCCc1ccc(-c2ccc3c4c([nH]c3c2)-c2ccc(C(=O)O)cc2C4)cc1 | Efficacy | 91
CCCCc1ccc(-c2ccc3c4c([nH]c3c2F)-c2cc(NC(C)=O)c(C(=O)O)cc2C4)cc1 | Efficacy | 90
Cc1cc(-c2ccc3c4c([nH]c3c2F)-c2ccc(C(N)=O)cc2C4)ccc1F | Efficacy | 105
